# Target or test system: T1, C-X-C motif chemokine receptor 4 (CXCR4) on Jurkat cells (human (endogenous in Jurkat), UniProt P61073 1-352)
# T1 construct: CXCR4 naturally expressed at high levels on Jurkat cells (human T lymphoblasts); source: endogenous, on Jurkat cells (clone E6-1, ATCC)
# T1 sequence (P61073 whole entry): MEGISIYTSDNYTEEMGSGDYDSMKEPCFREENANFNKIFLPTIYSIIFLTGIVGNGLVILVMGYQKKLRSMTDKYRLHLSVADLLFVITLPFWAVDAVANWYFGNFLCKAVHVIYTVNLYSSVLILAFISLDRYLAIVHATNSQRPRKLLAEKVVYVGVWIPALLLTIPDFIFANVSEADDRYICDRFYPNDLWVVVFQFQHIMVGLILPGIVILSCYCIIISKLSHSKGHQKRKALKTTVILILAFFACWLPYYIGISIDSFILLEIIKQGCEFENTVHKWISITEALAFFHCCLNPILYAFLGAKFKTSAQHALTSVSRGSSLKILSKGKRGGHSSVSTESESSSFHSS
# Experiment summary: flow cytometry on cells; competition with APC-labelled anti-CXCR4 antibody clone 12G5 at a fixed concentration close to its KD; Jurkat cells, 50,000 cells/well; ligands serially diluted in PBS; 4 °C, 2 h; PBS with 1% FBS
# Applied conditions: one partner purified
pIC50: −log10 of the molar value. Square brackets hold non-standard residues; d marks the D form. Side chains are listed from the residue outwards. Ends that are not written are not given here. * marks the point of attachment. DOTA = O=C(O)CN1CCN(CC(=O)O)CCN(CC(=O)*)CCN(CC(=O)O)CC1; Palmitoyl = CCCCCCCCCCCCCCCC(=O)*
Rule: pIC50 of 7 or more gives rule met; anything lower gives rule not met.

stdin: Could you tell me if the measured pIC50 of ILRWSRKLPCVSK(DOTA) (also: natLu complexed by DOTA, natLu and 177Lu complexes are written as one molecule; they differ only in the isotope; also called ^177Lu-1; Lu complex of ligand-1 (monomer); source: synthetic peptide, complexed with natLuCl3, monomer isolated by semipreparative RP-HPLC; ^177Lu form labelled with 177LuCl3 in the presence of DTT) [^natLu-1] reaches 7 or more?
stdout: rule not met

stdin: Does pIC50 meet or surpass 7 for ILRWSRKLPK(DOTA)-NH2 (N-terminus assumed; SMILES CC[C@H](C)[C@H](N)C(=O)N[C@@H](CC(C)C)C(=O)N[C@@H](CCCNC(=N)N)C(=O)N[C@@H](Cc1c[nH]c2ccccc12)C(=O)N[C@@H](CO)C(=O)N[C@@H](CCCNC(=N)N)C(=O)N[C@@H](CCCCN)C(=O)N[C@@H](CC(C)C)C(=O)N1CCC[C@H]1C(=O)N[C@@H](CCCCNC(=O)CN1CCN(CC(=O)O)CCN(CC(=O)O)CCN(CC(=O)O)CC1)C(N)=O, truncated JM#21 derivative with added C-terminal K(DOTA)-NH2; source: synthetic peptide (Fmoc solid phase synthesis, RP-HPLC purified)) [ligand-3] ?
stdout: rule met

stdin: Evaluate [dL]LRWSRK([Glu-Palmitoyl])K(DOTA)-NH2 (also: natLu complexed by DOTA, natLu and 177Lu complexes are written as one molecule; they differ only in the isotope; also called ^177Lu-9; Lu complex of ligand-9; source: synthetic peptide, complexed with natLuCl3; ^177Lu form labelled with 177LuCl3) [^natLu-9] : pIC50 at minimum 7?
stdout: rule met

stdin: Would you say [dL]LRWSRK([Glu-Palmitoyl])K(DOTA)-NH2 (main chain of 8 residues; source: synthetic peptide (Fmoc solid phase synthesis, RP-HPLC purified)) [ligand-9] shows pIC50 at minimum 7?
stdout: rule met

stdin: Given IVRWSKK(Palmitoyl)VPCSK(DOTA) (also: natLu complexed by DOTA) [^natLu-8] , state whether its pIC50 is at least 7.
stdout: rule met

stdin: Dear colleague, could you confirm whether [dL]LRWSRKLPCVSK(DOTA) (also: DOTA complexed with natLu, natLu and 177Lu complexes are written as one molecule; they differ only in the isotope; also called ^177Lu-6; Lu complex of ligand-6 (monomer); source: synthetic peptide, complexed with natLuCl3, monomer isolated by semipreparative RP-HPLC; ^177Lu form labelled with 177LuCl3 in the presence of DTT) [^natLu-6] has pIC50 at or above 7?
stdout: rule not met

stdin: Hi team, for ILRWSRKLPSVSK(DOTA) (as ligand-1 with serine instead of cysteine at position 10; source: synthetic peptide (Fmoc solid phase synthesis, RP-HPLC purified)) [ligand-2] , is the recorded pIC50 at or above 7?
stdout: rule not met

stdin: Kindly determine if pIC50 recorded for [dI]LRWSRKK(DOTA)-NH2 (also: natLu complexed by DOTA, natLu and 177Lu complexes are written as one molecule; they differ only in the isotope; also called ^177Lu-7; Lu complex of ligand-7; source: synthetic peptide, complexed with natLuCl3; ^177Lu form labelled with 177LuCl3) [^natLu-7] is above or exactly 7.
stdout: rule not met
